Tested on: SN12C renal
protocol: NCI tumour cell line growth inhibition, 48 h; in the data active = GI50 below about 0.43 µM; inactive = the rest
Log the outcome using a class from 1.0 (active), 0.0 (inactive)

Ask: Outcome? `O=C(c1ccccc1)c1ccccc1C(=O)c1ccccc1`
Reply: 0.0

Ask: Outcome? `N#Cc1c(NCc2ccccc2)nc(NCc2ccccc2)c(C#N)c1-c1cccc(O)c1`
Reply: 0.0

Ask: Outcome? `N#Cc1ncc(N2C(=O)C3(CCC3)N(c3ccc(OC4CCNCC4)nc3)C2=S)cc1C(F)(F)F`
Reply: 0.0

Ask: Outcome? `Cn1c(O)c(N=NC(N)=S)c2ccccc21`
Reply: 0.0

Ask: Outcome? `C=C1C(=O)O[C@H]2[C@H]1CC/C(COC(=O)/C=C/c1c[nH]c3ccccc13)=C\CC[C@@]1(C)O[C@@H]21`
Reply: 1.0

Ask: Outcome? `Cc1ccc(S(=O)(=O)c2ccsc2N)cc1`
Reply: 0.0

Ask: Outcome? N#CC1CCc2c(c(-c3cn[nH]c3C(F)(F)F)nc3c(F)cc4[nH]ncc4c23)C1 (configuration not stated)
Reply: 0.0

----------
System: SN12C renal
protocol: NCI tumour cell line growth inhibition, 48 h
Consider the following compounds; for each one, report its TGI.

Ask: Provide one value: measured TGI of CC(=O)OCC(OC(C)=O)C(OC(C)=O)C(OC(C)=O)C(=O)CNn1c(-c2ccccc2Cl)nc2ccc(Br)cc2c1=O (stereo not given)
Reply: > 100 µM

Ask: Provide one value: measured TGI of `O=c1c(-c2ccc(O)cc2)coc2cc(O)cc(O)c12`
Reply: > 100 µM

Ask: Provide one value: measured TGI of `C=C1C(=O)O[C@H]2[C@H]1CC/C(COC(=O)/C=C/c1c[nH]c3ccccc13)=C\CC[C@@]1(C)O[C@@H]21`
Reply: 0.478 µM

Ask: Provide one value: measured TGI of `O=C(O)c1ccc2cccnc2c1O`
Reply: > 72.2 µM

Ask: Provide one value: measured TGI of O=C1C2=C(c3ccccc31)C(c1ccc(Cl)cc1)NC(=S)N2 (stereo not given)
Reply: 40.3 µM

Ask: Provide one value: measured TGI of CCC1OC(/C(C)=C/C(C)/C=C/C2C(C)C2/C=C/C2OC(CC(=O)O)CC(O)C2O)CC=C1C (stereo not given)
Reply: > 50 µM

Ask: Provide one value: measured TGI of `C=C1C(=O)O[C@H]2[C@H]([C@H](C)CCCC(C)=O)O[C@H]([C@@]3(C)CCC(=O)O3)C[C@@H]12`
Reply: > 100 µM

Ask: Provide one value: measured TGI of `CCOC(=O)c1cn(C)nc1N/C(C)=C\C(=O)c1ccccc1`
Reply: > 100 µM

Ask: Provide one value: measured TGI of C=C1C(=O)O[C@H]2C3C(=C(C)CC[C@@H]12)C(=O)[C@@H]1OC31C (stereo not given in full)
Reply: 3.18 µM

Ask: Provide one value: measured TGI of `S=c1[nH]nc(SCc2ccccc2Cl)c2[nH]cnc12`
Reply: > 100 µM

----------
Tested on: K-562 leukemia
protocol: NCI tumour cell line growth inhibition, 48 h
observed_property: TGI

Ask: Provide one value: measured TGI of N=C1C(c2nc(-c3ccc(Br)cc3)cs2)=C(O)CN1CC1CCCO1 (stereo unspecified)
Reply: > 100 µM

Ask: Provide one value: measured TGI of COc1cc(CC2CC(c3ccc4c(c3)OCO4)OC2=O)cc(OC)c1OC (stereo unspecified)
Reply: > 100 µM

Ask: Provide one value: measured TGI of CCC1OC(/C(C)=C/C(C)/C=C/C2C(C)C2/C=C/C2OC(CC(=O)O)CC(O)C2O)CC=C1C (stereo unspecified)
Reply: > 50 µM

Ask: Provide one value: measured TGI of `CCOC(=O)c1cn(C)nc1N/C(C)=C\C(=O)c1ccccc1`
Reply: > 100 µM

Ask: Provide one value: measured TGI of C#CCOc1cccc(Nc2ncc3ncn(C4CCN(C(=O)CCl)C4)c3n2)c1 (stereo unspecified)
Reply: > 62.5 µM

Ask: Provide one value: measured TGI of `COC(=O)c1c(C#C[Si](C)(C)C)c(C#C[Si](C)(C)C)c(C#C[Si](C)(C)C)c(C#C[Si](C)(C)C)c1C(=O)OC`
Reply: > 100 µM

The reported numbers originate from PubChem BioAssay (NCI).
